Quick reference: IC50 of the listed items.
target: human SGLT1 (Homo sapiens); construct: Full-length human SGLT1 cDNA on pDream2.1 expression vector; experiment: Methyl-α-D-[U-14C]glucopyranoside uptake assay, SGLT1; settings: COS-7 cells transfected with human SGLT1; sodium-dependent uptake, 2 h incubation
Sequence (P13866 whole entry): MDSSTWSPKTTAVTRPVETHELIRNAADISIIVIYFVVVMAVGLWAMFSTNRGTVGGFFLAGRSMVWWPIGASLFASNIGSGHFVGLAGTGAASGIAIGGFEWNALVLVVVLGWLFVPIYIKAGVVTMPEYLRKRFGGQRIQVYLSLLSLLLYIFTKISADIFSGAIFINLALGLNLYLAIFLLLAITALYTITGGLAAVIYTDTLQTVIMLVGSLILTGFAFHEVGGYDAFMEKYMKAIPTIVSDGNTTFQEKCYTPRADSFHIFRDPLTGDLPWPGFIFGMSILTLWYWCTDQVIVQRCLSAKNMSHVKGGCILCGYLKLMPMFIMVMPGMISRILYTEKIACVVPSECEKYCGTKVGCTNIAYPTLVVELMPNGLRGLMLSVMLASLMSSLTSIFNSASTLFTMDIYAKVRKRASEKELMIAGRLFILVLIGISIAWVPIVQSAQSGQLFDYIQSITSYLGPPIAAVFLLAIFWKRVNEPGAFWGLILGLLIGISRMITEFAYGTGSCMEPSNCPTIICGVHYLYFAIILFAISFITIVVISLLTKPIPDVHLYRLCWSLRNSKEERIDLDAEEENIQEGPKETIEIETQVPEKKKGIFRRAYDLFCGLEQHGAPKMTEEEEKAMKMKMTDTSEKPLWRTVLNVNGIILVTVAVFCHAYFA

Guide cases for IC50, answers given:
• CCc1ccc(Cc2cc3c(cc2Cl)C(CCO)C[C@]32O[C@H](CO)[C@@H](O)[C@H](O)[C@H]2O)cc1 (stereo partly drawn) [Compound BA] = > 10 µM
• CCc1ccc(Cc2cc3c(cc2Cl)CO[C@]32O[C@H](CO)[C@@H](O)[C@H](O)[C@H]2O)cc1 [Compound K] = < 1 µM

Now let's try a different one.
[ask] Given CCc1ccc(Cc2cc3c(cc2Cl)CC[C@]32O[C@H](CO)[C@@H](O)[C@H](O)[C@H]2O)cc1 [Compound AV] , state its recorded IC50.
[reply] 1 to 10 µM
